For Sigma non-opioid intracellular receptor 1 (Cavia porcellus, UniProt Q60492), measured pKi is reported for the entries below.
A value of pKi is the negative decimal logarithm of a concentration given in moles per litre.

**Query** Field: pKi (Sigma non-opioid intracellular receptor 1 (Cavia porcellus, UniProt Q60492)). Entry: CN(C)CCC=C1c2ccccc2CCc2ccccc21
**Result** 6.52

**Query** Field: pKi (Sigma non-opioid intracellular receptor 1 (Cavia porcellus, UniProt Q60492)). Entry: CNCCC=C1c2ccccc2CCc2ccccc21 [NORTRIPTYLINE]
**Result** 5.70

**Query** Field: pKi (Sigma non-opioid intracellular receptor 1 (Cavia porcellus, UniProt Q60492)). Entry: CN(C)CCCN1c2ccccc2Sc2ccc(C(F)(F)F)cc21 [TRIFLUPROMAZINE]
**Result** 6.22

**Query** Field: pKi (Sigma non-opioid intracellular receptor 1 (Cavia porcellus, UniProt Q60492)). Entry: CN(C)CCCN1c2ccccc2Sc2ccc(Cl)cc21
**Result** 5.83

Next:
**Query** Field: pKi (Sigma non-opioid intracellular receptor 1 (Cavia porcellus, UniProt Q60492)). Entry: CN(C)CCCN1c2ccccc2CCc2ccccc21
**Result** 6.28

All figures here come from BindingDB's records for doi:10.1111/j.2042-7158.1986.tb04590.x.
